Recorded log10 of koff for the following binders
- Assayed System: T1, human CD8A-Fc (in house) (human, UniProt P01732 22-182, limits assumed)
- T1 construct: captured by goat anti-human Fc on the ProteOn chip; also called hCD8A-Fc; recombinant human CD8 alpha; not shown: linker/tag and Fc of human IgG1
- T1 sequence (P01732 22-182 limits assumed): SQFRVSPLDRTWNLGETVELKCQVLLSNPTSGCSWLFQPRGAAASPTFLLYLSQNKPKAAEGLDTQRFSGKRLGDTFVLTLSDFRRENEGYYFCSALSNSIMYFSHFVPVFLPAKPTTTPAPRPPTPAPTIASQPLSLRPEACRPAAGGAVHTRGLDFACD
- Protocol: SPR (ProteOn), captured hCD8A-Fc
Measured Attribute: log10 of koff (log10 of the value in s⁻¹)

1) P283HR7P1368_F10 (designed binder, FN3 domain) LPAPKNLVVSRVTEDSARLSWTAPDAAFDSFYIPYRESEFRGEAIALPVPGSERSYDLTGLKPGTKYRVIIIGVKGGEFSQPLGAIFTT = -3.78
2) P283GR7P1367_F5 (designed binder, FN3 domain) LPAPKNLVVSRVTEDSARLSWTAPDAAFDSFDIAYPEWPTDGEAIVLTVPGSERSYDLTGLKPGTEYFVIIYGVKGGALSRPLSAIFTT = -2.97
3) P283DR9P1364_E9 (designed binder, FN3 domain) LPAPKNLVVSRVTEDSARLSWTAPDAAFDSFDIAYPEWPTKGEAIVLTVPGSERSYDLTGLKPGTEYFVVINGVKGGWRSFPLSAIFTT = -2.72
4) P283FR9P1366_C3 (designed binder, FN3 domain) LPAPKNLVVSRVTEDSARLSWTAPDAAFDSFKIAYPEWPDGGEAIVLTVPGSERSYDLTGLKPGTEYFVIIYGVKGGILSPPLSAIFTT = -2.68
5) P283GR7P1367_B4 (designed binder, FN3 domain) LPAPKNLVVSRVTEDSARLSWTAPDAAFDSFSILYYELPPSGEAIVLTVPGSERSYDLTGLKPGTEYTVSIFGVKGGDNSFPLSAIFTT = -2.29
